Tested on: SW480
Experiment: cell viability (CellTiter-Glo) relative to plate median (fraction of plate median); higher = more viable cells
Details: 5 µM; treatment time 24 h; reporter: 7TFP
Recorded cell viability by entry

- MOLECULE: "C[C@H](N)[C@H](O)c1ccc(O)c(O)c1"
  STUDY TARGET: "SW480"
  cell viability: 1.09
- MOLECULE: "COc1cc2c(c(OC)c1OC)-c1ccc(OC)c(=O)cc1[C@@H](NC(C)=O)CC2"
  STUDY TARGET: "SW480"
  cell viability: 1.22
- MOLECULE: "COC(=O)[C@]1(C)CC[C@]2(C)CC[C@]3(C)C4=CCc5c(cc(O)c(O)c5C)[C@]4(C)CC[C@@]3(C)[C@@H]2C1"
  STUDY TARGET: "SW480"
  cell viability: 1
- MOLECULE: "O=[N+]([O-])c1ccc(O)c([N+](=O)[O-])c1"
  STUDY TARGET: "SW480"
  cell viability: 0.905
- MOLECULE: "CNc1ccccc1C(=O)O"
  STUDY TARGET: "SW480"
  cell viability: 1
- MOLECULE: "COC1CC(OC2CCC3(C)C(CCC4C3CCC3(C)C(C5=CC(=O)OC5)CCC43O)C2)OC(C)C1OC1OC(COC2OC(CO)C(O)C(O)C2O)C(O)C(O)C1O (centres undefined)"
  STUDY TARGET: "SW480"
  cell viability: 0.964
- MOLECULE: "COc1cc([C@@H]2c3cc4c(cc3[C@H](O)[C@H]3COC(=O)[C@@H]23)OCO4)cc(OC)c1OC"
  STUDY TARGET: "SW480"
  cell viability: 1.22
- MOLECULE: "O=[N+]([O-])O[C@H]1CO[C@H]2[C@@H]1OC[C@H]2O[N+](=O)[O-]"
  STUDY TARGET: "SW480"
  cell viability: 1.05
- MOLECULE: "[O-][n+]1ccccc1[S-].[O-][n+]1ccccc1[S-].[Zn+2]"
  STUDY TARGET: "SW480"
  cell viability: 0.628
